Assay: chemical genetic growth profiling, strain panel (AID 1159580);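 also: tested at 20 µM; growth read once vehicle control cultures reached saturation at 30 °C; 1 = growth at the plate median or of vehicle wells; lower values mean less growth of the strain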
Settings: S. cerevisiae strains, growth OD, strain wild type, active compounds read low
About 2,000 (36%) of roughly 5,500 compounds were called active. Another 18% or so got no clear call; they are omitted. This is one part of the list.
normalized growth for assorted compounds
Returns: the value as a bare number; no unit string appended.

COc1cc(C)c2c(=O)c3c(O)cc(O)cc3oc2c1 :: 0.932
CC1(C)O[C@@H]2CC3C4C[C@H](F)C5=CC(=O)CC[C@]5(C)C4[C@@H](O)C[C@]3(C)[C@]2(C(=O)CO)O1 (stereo partly specified) :: 1.02
CC(=O)OCC(=O)[C@@]1(O)CCC2C3C[C@H](C)C4=CC(=O)C=CC4(C)C3[C@@H](O)CC21C (stereo partly specified) :: 1
CC(=O)CS(=O)(=O)c1ccc(Cl)cc1 :: 1

Reported normalized growth for COc1cccc2c1CCC1=CC(=O)CC[C@@]12C : what is it?
1.01

Reported normalized growth for N#Cc1c(Cl)cccc1Cl : what is it?
1.01

* * *

Test: chemical genetic growth profiling, strain panel (AID 1159580);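 also: tested at 20 µM; growth read once vehicle control cultures reached saturation at 30 °C; 1 = growth at the plate median or of vehicle wells; lower values mean less growth of the strain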
Details: S. cerevisiae deletion strains, growth OD, locus YLR085C, strain ARP6, active compounds read low
The whole screen tested about 5,500 compounds, of which about 2,000 (36%) were called active. Inconclusive results (about 18%) are left out. Some of the results follow.
normalized growth for assorted compounds

Reported normalized growth for O=C(O)C1CC(=O)N(Cc2ccccc2Cl)C1 (stereo not drawn) : what is it?
1.04 (inactive)

Reported normalized growth for Cc1ccc(Cl)cc1NC(=S)N(CCC#N)/N=C\c1ccc2c(c1)OCO2 : what is it?
0.925 (inactive)

Reported normalized growth for O=[N+]([O-])c1ccc(Oc2c(Cl)cccc2Cl)c(Cl)c1Oc1c(Cl)cccc1Cl : what is it?
0.976 (inactive)

* * *

Assay: chemical genetic growth profiling, strain panel (AID 1159580);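 also: tested at 20 µM; growth read once vehicle control cultures reached saturation at 30 °C; 1 = growth at the plate median or of vehicle wells; lower values mean less growth of the strain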
Conditions: S. cerevisiae deletion strains, growth OD, locus YKL009W, strain mrt4, active compounds read low
Screen size: about 5,500 compounds; about 2,000 (36%) were called active. Roughly 18% stayed inconclusive and do not appear here. The list shows a part of the results.
normalized growth for assorted molecules
Returns: the value as a bare number; no unit string appended.

Previously resolved entries follow.
O=C(CCCN1CCC2(CC1)C(=O)NCN2c1ccccc1)c1ccc(F)cc1 :: 0.977
CN(C)CC[C@H](c1ccc(Cl)cc1)c1ccccn1 :: 1.01
CC(C)=CC1C(CO)C1(C)C (stereo not given) :: 1
COc1nc(NC(C)C)nc(NC(C)C)n1 :: 1.02

Reported normalized growth for CCCc1nn(C)c2c(=O)[nH]c(-c3cc(S(=O)(=O)N4CCN(C)CC4)ccc3OCC)nc12 : what is it?
1.01

* * *

Assay: chemical genetic growth profiling, strain panel (AID 1159580);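 also: tested at 20 µM; growth read once vehicle control cultures reached saturation at 30 °C; 1 = growth at the plate median or of vehicle wells; lower values mean less growth of the strain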
Conditions: S. cerevisiae deletion strains, growth OD, locus YNL209W, strain ssb2, active compounds read low
The whole screen tested about 5,500 compounds, of which about 2,000 (36%) were called active. Roughly 18% stayed inconclusive and do not appear here. The list shows a part of the results.
MEASUREMENT_NAME: normalized growth
Returns: the value as a bare number; no unit string appended.

Previously resolved entries follow.
CC(=O)O[C@@H]1c2c(ccc3ccc(=O)oc23)OC(C)(C)[C@@H]1OC(=O)CC(C)C :: 1.01
O=c1c2cc(O)c(O)cc2oc2cc(O)c(C3O[C@H](CO)[C@H](O)[C@@H](O)[C@H]3O)c(O)c12 (stereo partly drawn) :: 0.986
CC(C)(C)NCC(O)COc1cccc2c1CCCC2=O (stereo not drawn) :: 0.984
CCCCCC(O)C1C(=O)OC(C)C(O)/C=C/C=C/C=C/C=C/C=C(\C)C(O)CC(O)CC(O)CC(O)CC(O)CC(O)CC1O (stereo not drawn) :: 0.997
NC[C@H]1O[C@H](O[C@H]2[C@H](O)[C@@H](O[C@H]3O[C@H](CO)[C@@H](O)[C@H](N)[C@H]3O)[C@H](N)C[C@@H]2N)[C@H](N)[C@@H](O)[C@@H]1O :: 0.992
O=c1c(-c2ccc(O)cc2)coc2c(C3O[C@H](CO)[C@@H](O)[C@H](O)[C@H]3O)c(O)ccc12 (stereo partly drawn) :: 0.984
CN(C)C(=O)C(CCN1CCC(O)(c2ccc(Cl)cc2)CC1)(c1ccccc1)c1ccccc1 :: 1.01

Reported normalized growth for COC1CC(OC2CCC3(C)C(CCC4C3CCC3(C)C(C5=CC(=O)OC5)C(OC(C)=O)CC43O)C2)OC(C)C1O (stereo not drawn) : what is it?
1.01
